Data credit: patent US20220324970A1

biological target: T1, human pIgR, full-length, on cells (human, UniProt P01833 19-764); experiment: flow cytometry on MDCK-hpIgR cells
T1 construct: whole, on cells; Used for the flow cytometry EC50 values (MDCK-hpIgR) and for the transcytosis read-outs; also called hpIgR; cell-surface hpIgR
T1 sequence (P01833 19-764): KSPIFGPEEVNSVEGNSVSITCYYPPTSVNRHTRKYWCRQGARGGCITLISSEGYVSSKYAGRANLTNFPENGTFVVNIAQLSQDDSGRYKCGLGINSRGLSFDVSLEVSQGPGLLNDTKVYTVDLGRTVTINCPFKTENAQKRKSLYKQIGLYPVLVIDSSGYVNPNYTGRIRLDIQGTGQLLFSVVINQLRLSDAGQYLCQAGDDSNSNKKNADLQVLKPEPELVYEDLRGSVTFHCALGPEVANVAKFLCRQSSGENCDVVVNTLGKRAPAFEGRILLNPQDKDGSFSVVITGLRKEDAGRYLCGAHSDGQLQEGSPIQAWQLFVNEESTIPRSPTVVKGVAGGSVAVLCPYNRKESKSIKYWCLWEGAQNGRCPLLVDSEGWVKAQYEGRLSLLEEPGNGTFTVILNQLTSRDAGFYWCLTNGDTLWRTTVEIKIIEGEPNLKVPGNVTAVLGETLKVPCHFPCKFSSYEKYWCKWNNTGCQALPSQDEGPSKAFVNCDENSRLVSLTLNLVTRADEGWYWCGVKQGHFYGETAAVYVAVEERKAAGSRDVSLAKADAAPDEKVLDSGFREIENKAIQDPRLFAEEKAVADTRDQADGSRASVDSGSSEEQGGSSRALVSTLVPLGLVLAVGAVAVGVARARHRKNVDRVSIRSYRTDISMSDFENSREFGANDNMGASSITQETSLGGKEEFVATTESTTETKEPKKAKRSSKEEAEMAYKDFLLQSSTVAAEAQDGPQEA
pEC50: −log10 of the molar value.
Could you label it T if measured pEC50 is 8 or higher, and F otherwise?

Field: example entries. Status: answers known.
>  <Binder>
VHH10-linker-mono-Fc protein (Fc fusion, made in CHO cells; also called VHH10-mono-Fc; hpIgR_225) EVQVVESGGGLVQAGGSLRLSCAASGFTFTRYAMGWFRQAPGKERSFVAAISWSGSSAGYGDSVKGRFTISRDNAKNTLYLQMNSLKPEDTAVYYCAADPFNQGYWGQGTQVTVSSEPKTPKPQPQPQLQPQPNPTTESKSPKSPAPELLGGPSVFLFPPKPKDTLMISRTPEVTCVVVDVSHEDPEVKFNWYVDGVEVHNAKTKPREEQYNSTYRVVSVLTVLHQDWLNGKEYKCKVSNKALPAPIEKTISKAKGQPREPQVYTKPPSREEMTKNQVSLSCLVKGFYPSDIAVEWESNGQPENNYKTTVPVLDSDGSFRLASYLTVDKSRWQQGNVFSCSVMHEALHNHYTQKSLSLSPGK

>  <Qualitative label>
F

$$$$
>  <Binder>
VHH5-linker-mono-Fc protein (Fc fusion, made in CHO cells; also called VHH5-mono-Fc; hpIgR_175) QVQLVESGGGLVQAGGSLRLSCAASGRTFSSYAMGWFRQAPGKEREFVAAITWNGGTTYYADSVKGRFTISRDNAKNTVYLQMNSLKPEDTAVYYCAADPFNQGYWGQGTQVTVSSEPKTPKPQPQPQLQPQPNPTTESKSPKSPAPELLGGPSVFLFPPKPKDTLMISRTPEVTCVVVDVSHEDPEVKFNWYVDGVEVHNAKTKPREEQYNSTYRVVSVLTVLHQDWLNGKEYKCKVSNKALPAPIEKTISKAKGQPREPQVYTKPPSREEMTKNQVSLSCLVKGFYPSDIAVEWESNGQPENNYKTTVPVLDSDGSFRLASYLTVDKSRWQQGNVFSCSVMHEALHNHYTQKSLSLSPGK

>  <Qualitative label>
T

$$$$
>  <Binder>
VHH11-linker-mono-Fc protein (Fc fusion, made in CHO cells; also called VHH11-mono-Fc; hpIgR_250) EVQVVESGGGLVQAGGSLRLSCAASGRTFTTYRMGWFRQAPGKEREFVAAIRWSGGRTLYADSVKGRFTISRDNAKNTAYLQMNNLRPEDTAVYYCAADLAEYSGTYSSPADSPAGYDYWGQGTQVTVSSEPKTPKPQPQPQLQPQPNPTTESKSPKSPAPELLGGPSVFLFPPKPKDTLMISRTPEVTCVVVDVSHEDPEVKFNWYVDGVEVHNAKTKPREEQYNSTYRVVSVLTVLHQDWLNGKEYKCKVSNKALPAPIEKTISKAKGQPREPQVYTKPPSREEMTKNQVSLSCLVKGFYPSDIAVEWESNGQPENNYKTTVPVLDSDGSFRLASYLTVDKSRWQQGNVFSCSVMHEALHNHYTQKSLSLSPGK

>  <Qualitative label>
T

$$$$
>  <Binder>
VHH4-linker-mono-Fc protein (Fc fusion, also called VHH4-mono-Fc; hpIgR_073) EVQVVESGGGLVQAGGSLRLSCAVSGTSVSSNAMGWYRQAPGKQREWVGFIDRIATTTIATSVKGRFAITRDNAKNTVYLQMSGLKPEDTAVYYCNHPLTARWGQGTQVTVSSEPKTPKPQPQPQLQPQPNPTTESKSPKSPAPELLGGPSVFLFPPKPKDTLMISRTPEVTCVVVDVSHEDPEVKFNWYVDGVEVHNAKTKPREEQYNSTYRVVSVLTVLHQDWLNGKEYKCKVSNKALPAPIEKTISKAKGQPREPQVYTKPPSREEMTKNQVSLSCLVKGFYPSDIAVEWESNGQPENNYKTTVPVLDSDGSFRLASYLTVDKSRWQQGNVFSCSVMHEALHNHYTQKSLSLSPGK

>  <Qualitative label>
F

$$$$

Turning to the following binder.
Form field: pEC50 at least 8? Entry: VHH7-linker-mono-Fc protein (Fc fusion, made in CHO cells; also called VHH7-mono-Fc; hpIgR_198) EVQVVESGGGLVQAGGSLRLACVASRSIGSINVMGWYRQAPGKQRDLVARITGGGSTHYAESVKGRFTISRDNAKNTVYLQMNSLEPEDTAVYYCASMVNPIITAWGTIGVREIPDYDYWGQGTQVTVSSEPKTPKPQPQPQLQPQPNPTTESKSPKSPAPELLGGPSVFLFPPKPKDTLMISRTPEVTCVVVDVSHEDPEVKFNWYVDGVEVHNAKTKPREEQYNSTYRVVSVLTVLHQDWLNGKEYKCKVSNKALPAPIEKTISKAKGQPREPQVYTKPPSREEMTKNQVSLSCLVKGFYPSDIAVEWESNGQPENNYKTTVPVLDSDGSFRLASYLTVDKSRWQQGNVFSCSVMHEALHNHYTQKSLSLSPGK
F
